Target Or Test System: human mGluR5d (Homo sapiens)
Construct: expressed in transfected cells
Sequence (P41594 21-942 isoform P41594-3 limits assumed): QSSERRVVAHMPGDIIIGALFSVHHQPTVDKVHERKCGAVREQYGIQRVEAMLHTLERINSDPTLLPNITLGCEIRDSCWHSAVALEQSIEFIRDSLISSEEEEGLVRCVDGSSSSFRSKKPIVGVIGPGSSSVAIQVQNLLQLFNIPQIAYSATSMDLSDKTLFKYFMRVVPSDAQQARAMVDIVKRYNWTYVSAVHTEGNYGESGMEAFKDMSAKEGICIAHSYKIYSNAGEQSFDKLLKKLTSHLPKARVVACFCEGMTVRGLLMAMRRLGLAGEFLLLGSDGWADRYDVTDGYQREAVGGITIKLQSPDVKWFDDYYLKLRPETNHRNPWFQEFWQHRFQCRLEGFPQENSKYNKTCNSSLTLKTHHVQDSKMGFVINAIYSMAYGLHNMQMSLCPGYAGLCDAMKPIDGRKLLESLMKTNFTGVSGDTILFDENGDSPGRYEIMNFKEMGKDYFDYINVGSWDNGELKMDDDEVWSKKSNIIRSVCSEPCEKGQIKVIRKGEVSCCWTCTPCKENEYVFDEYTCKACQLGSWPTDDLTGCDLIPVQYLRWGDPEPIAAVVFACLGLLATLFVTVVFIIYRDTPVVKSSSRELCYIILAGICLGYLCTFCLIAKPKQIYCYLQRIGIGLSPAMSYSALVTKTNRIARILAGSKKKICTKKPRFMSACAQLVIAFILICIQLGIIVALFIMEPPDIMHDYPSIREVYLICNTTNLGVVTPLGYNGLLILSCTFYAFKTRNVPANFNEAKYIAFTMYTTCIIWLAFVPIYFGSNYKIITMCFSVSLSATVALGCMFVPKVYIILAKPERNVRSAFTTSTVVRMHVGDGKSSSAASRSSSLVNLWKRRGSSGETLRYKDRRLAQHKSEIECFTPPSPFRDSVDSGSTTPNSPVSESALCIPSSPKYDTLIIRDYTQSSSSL
Protocol Summary: FLIPR assay, mobilization of intracellular calcium in cells expressing human mGluR5d
Format: cell-based
Conditions Used: antagonism in cells expressing human mGluR5d, fluo-4 calcium signal; read-out: FLIPR hmGluR5d
pIC50: −log10 of the molar value.
Recorded Endpoint: pIC50

| Line Notation | Measurement |
| --- | --- |
| Cc1cccc(-c2nc([C@@H](C)Sc3nnc(-c4ccn(C)c(=O)c4)n3C)no2)c1 | 7.52 |
| Cc1cccc(-c2nc([C@@H](C)Sc3nnc(-c4cc[nH]c(=O)c4)n3C)no2)c1 | 7.62 |
| Cc1cccc(-c2cc([C@@H](C)Sc3nnc(-c4ccn(C)c(=O)c4)n3C)no2)c1 | 6.42 |
| Cc1cccc(-n2nnc([C@@H](C)Sc3nnc(-c4cc[nH]c(=O)c4)n3C)n2)c1 | 7.72 |
| Cc1cccc(-c2nc([C@@H](C)Sc3nnc(-c4cn[nH]c(=O)c4)n3C)no2)c1 | 7.39 |
| Cc1cccc(-c2cc([C@@H](C)Sc3nnc(-c4cn[nH]c(=O)c4)n3C)no2)c1 | 7.72 |
| Cc1cccc(-c2cc([C@@H](C)Sc3nnc(-c4cc[nH]c(=O)c4)n3C)no2)c1 | 6.84 |
| C[C@@H](Sc1nnc(-c2cn[nH]c(=O)c2)n1C)c1nnn(-c2cccc(Cl)c2)n1 | 7.74 |
| Cc1cccc(-n2nnc([C@@H](C)Sc3nnc(-c4ccn(C)c(=O)c4)n3C)n2)c1 | 7.06 |
| Cc1cccc(-n2nnc([C@@H](C)Sc3nnc(-c4cn[nH]c(=O)c4)n3C)n2)c1 | 7.74 |
